- PROCEDURE_TEXT: Pharmacokinetic (PK) study, plasma by LC-MS
- Assay type: in vivo, Rat
- TEST_CONDITIONS: Rat Female, @ 5 mg/kg; po @ 80 mg/kg (30% PEG400, 10% Vitamin E TPGS in water)
TEST_READOUT: F (%) @ 5 mg/kg
Give just the number in %; leave the unit off.

// below: answered compounds
{"columns": ["COMPOUND", "F (%) @ 5 mg/kg"],
 "data": [
  ["CC(C)OC(=O)N[C@H]1CC[C@H](c2ncc(-c3ccc(NC(=O)NCc4ccccc4)cc3S(=O)(=O)NC(C)(C)C)s2)CC1 [Ex. 66A]", 3.31],
  ["CC(C)OC(=O)Nc1ccc(-c2cnc([C@H]3CC[C@H](NC(=O)OC(C)C)CC3)s2)c(S(=O)(=O)NC(C)(C)C)c1 [Ex. 67A]", 86.5],
  ["CC(C)OC(=O)N[C@H]1CC[C@H](c2ncc(-c3ccc(NC(=O)NCc4ncccc4F)cc3S(=O)(=O)NC(C)(C)C)s2)CC1", 2.77]
]}

Now look at this one.
Complete the entry with F (%) @ 5 mg/kg for `CC(C)OC(=O)N[C@H]1CC[C@H](c2ncc(-c3ccc(NC(=O)NCc4ccccn4)cc3S(=O)(=O)NC(C)(C)C)s2)CC1`
8.39
